- TARGET DESC: recombinant sEH (soluble epoxide hydrolase, EPHX2) (Homo sapiens (Human), UniProt P34913)
- Sequence (P34913 whole entry): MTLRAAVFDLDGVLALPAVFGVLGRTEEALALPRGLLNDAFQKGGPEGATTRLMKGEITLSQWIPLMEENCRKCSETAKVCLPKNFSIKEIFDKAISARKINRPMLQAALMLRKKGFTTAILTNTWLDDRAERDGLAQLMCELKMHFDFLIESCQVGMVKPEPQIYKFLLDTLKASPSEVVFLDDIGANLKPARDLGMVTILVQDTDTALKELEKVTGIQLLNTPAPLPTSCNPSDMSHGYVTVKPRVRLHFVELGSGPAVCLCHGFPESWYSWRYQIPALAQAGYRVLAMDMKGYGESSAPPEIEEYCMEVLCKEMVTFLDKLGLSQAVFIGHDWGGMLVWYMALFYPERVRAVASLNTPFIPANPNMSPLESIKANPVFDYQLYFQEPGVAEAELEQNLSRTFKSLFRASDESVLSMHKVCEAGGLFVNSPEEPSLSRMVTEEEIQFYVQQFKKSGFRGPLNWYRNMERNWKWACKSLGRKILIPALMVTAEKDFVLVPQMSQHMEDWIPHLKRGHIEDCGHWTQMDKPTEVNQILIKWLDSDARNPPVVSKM
- ASSAY NOTES: biochemical fluorometric sEH inhibition assay with Phome substrate
- PARTICULARS: recombinant sEH purified from Sf9 insect cells, 2 nM sEH, 5 μM Phome, 60 minutes at 30° C.
pIC50: −log10 of the molar value.
ASSAY READOUT: pIC50

Answered examples (3):
>>> measured_value("O=C(NCc1ccccc1OC(F)(F)F)c1ccc(CN2CCN(c3cnccn3)CC2)s1")
8.59
>>> measured_value("O=C(NCc1ccc(Cl)cc1Cl)c1cnc(CN2CCN(C(=O)CCO)CC2)s1")
7.60
>>> measured_value("Cn1cccc1C(=O)N1CCN(Cc2ccc(C(=O)NCc3ccccc3C(F)(F)F)s2)CC1")
9.00

1: O=C(NCc1ccccc1OC(F)(F)F)c1ccc(CN2CCN(C(=O)CN3CCOC3=O)CC2)s1
2: CC[C@H](O)C(=O)N1CCN(Cc2ncc(C(=O)NCc3ccc(Cl)cc3Cl)s2)CC1
3: Cc1cc(C(=O)NCc2cccc3c2OCCO3)sc1CN1CCN(C(=O)c2c(C)cc(=O)oc2C)CC1
Ask: Rank order required: pIC50, descending. As an answer, provide the labels arranged in the order called for.
Reply: 3, 1, 2
(3: 9.10, 1: 8.70, 2: 7.85)

----------
- TARGET DESC: recombinant sEH (soluble epoxide hydrolase, EPHX2) (Homo sapiens (Human), UniProt P34913)
- ASSAY NOTES: biochemical fluorometric sEH inhibition assay with Phome substrate
- PARTICULARS: recombinant sEH purified from Sf9 insect cells, 2 nM sEH, 5 μM Phome, 60 minutes at 30° C.
pIC50: −log10 of the molar value.
ASSAY READOUT: pIC50

// below: answered compounds
>>> measured_value("Cc1cc(=O)oc(C)c1C(=O)N1CCN(Cc2ccc(C(=O)NCC3CCc4ccccc43)s2)CC1 (stereo not shown)")
8.56
>>> measured_value("O=C(NCc1ccc(Cl)cc1Cl)c1ccc(CN2CCN(C3CCCC3)C(=O)C2)s1")
8.63

A: Cc1cc(=O)oc(C)c1C(=O)N1CCN(Cc2ccc(C(=O)NCc3ccc(C#N)cc3Cl)s2)CC1
B: COc1cccnc1C(=O)N1CCN(Cc2ccc(C(=O)NCc3ccccc3OC(F)(F)F)s2)CC1
C: COc1cc(CNC(=O)c2ccc(CN3CCN(C(=O)c4c(C)cc(=O)oc4C)CC3)s2)ccn1
Ask: Rank ascending by pIC50. Output spec: a listing of the labels in the requested order.
Reply: A, B, C

P: O=C(NCc1ccccc1C(F)(F)F)c1ccc(CN2CCN(C(=O)C3(c4ccccc4)CC3)CC2)s1
Q: Cc1cc(C(=O)NCCC(C)(C)C)sc1CN1CCN(C(=O)c2c(C)cc(=O)oc2C)CC1 [Example 28]
R: CCc1oncc1C(=O)N1CCN(Cc2ccc(C(=O)NCc3ccc(Cl)cc3Cl)s2)CC1
Ask: Thanks in advance: please rank these 3 entries by pIC50, highest to lowest. Form entry: labels listed in requested order.
Reply: Q, R, P

A: Cc1cncc(N2CCN(Cc3ccc(C(=O)NCc4ccccc4OC(F)(F)F)s3)CC2)n1
B: COc1ncccc1C(=O)N1CCN(Cc2ccc(C(=O)NCc3ccc(Cl)cc3Cl)s2)CC1
C: O=C1NCC(C(=O)N2CCN(Cc3ncc(C(=O)NCc4ccc(Cl)cc4Cl)s3)CC2)N1 (stereo not shown)
D: CC1(C)C(=O)NCCN1Cc1ccc(C(=O)NCc2ccccc2OC(F)(F)F)s1
Ask: Arrange these compounds by their pIC50, starting with the largest number. List each label, following the requested order.
Reply: B, D, A, C
